# target_system: Mas-related G-protein coupled receptor member X1 (Homo sapiens)
# assay_remarks: blockade of BAM8-22-evoked MrgX1 calcium response – HEK293 cells, Fluo-4 calcium flux, primary screen (AID 588676)
# protocol_conditions: Fluo-4, BAM8-22 antagonism, at 10 µM
Screen size: about 310,000 compounds; about 3,900 (1.3%) were called active.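 The calls were made as follows: active = calcium-response B-score plate-corrected more than 3 library SD below zero, starting fluorescence within 5 deviations, no agonist response on first addition; inactive = the rest.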 The list comes from a sample in which actives are over-represented; it also holds close analogues and randomly drawn compounds.
Pick one: y (active), n (inactive)

Worked cases, answers included:
CC1=NN(c2cccc(Cl)c2)C(=O)C12CC(C)=C(C)CS2 (stereo not given) | n
Cc1cc(N2CCOCC2)nc2ccc(NC(=S)N3CCN(Cc4ccccc4)CC3)cc12 | n
O=C(/C(=C/c1cccc(Cl)c1)c1nc2ccccc2[nH]1)c1ccccc1 | n

**Query** Lab log entry: COc1ccc(C(=O)N(Cc2ccc(N(C)C)cc2)C2CCS(=O)(=O)C2)cc1 (stereo not given) — outcome as called in the assay?
**Result** n

**Query** Lab log entry: "Cc1cc2oc(=O)cc(CN3CCN(S(=O)(=O)c4cccs4)CC3)c2cc1C(C)C" — outcome as called in the assay?
**Result** n

---

# target_system: Mas-related G-protein coupled receptor member X1 (Homo sapiens)
# assay_remarks: blockade of BAM8-22-evoked MrgX1 calcium response – HEK293 cells, Fluo-4 calcium flux, primary screen (AID 588676)
# protocol_conditions: Fluo-4, BAM8-22 antagonism, at 10 µM
Screen size: about 310,000 compounds; about 3,900 (1.3%) were called active.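 How the source made its calls: active means calcium-response B-score plate-corrected more than 3 library SD below zero, starting fluorescence within 5 deviations, no agonist response on first addition; inactive means the rest.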 The full list was thinned out, with actives kept by preference.
Pick one: Yes (active), No (inactive)

COC(=O)c1ccc2ccccc2c1OC1OC(CO)C(O)C(O)C1NC(C)=O (stereo not drawn) | No

Next compound, please.
**Query** Lab log entry: O=C(CCN1C(=O)C2C3C=CC(C3)C2C1=O)Oc1ccc2ccccc2c1 (stereo not drawn) — outcome as called in the assay?
**Result** No

---

# target_system: Mas-related G-protein coupled receptor member X1 (Homo sapiens)
# assay_remarks: blockade of BAM8-22-evoked MrgX1 calcium response – HEK293 cells, Fluo-4 calcium flux, primary screen (AID 588676)
# protocol_conditions: Fluo-4, BAM8-22 antagonism, at 10 µM
About 3,900 (1.3%) of roughly 310,000 compounds were called active.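 Rule for the calls: active = calcium-response B-score plate-corrected more than 3 library SD below zero, starting fluorescence within 5 deviations, no agonist response on first addition; inactive = the rest.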 What follows is part of a selection rich in actives, with near analogues and random picks from the rest.
Pick one: 1.0 = active, 0.0 = inactive

Worked cases, answers included:
O=c1[nH]c(N2CCOCC2)nc2ccccc12 | 0.0
CCN(CC)c1ccc(C(=O)NNC(=O)CCc2nc3ccccc3c(=O)[nH]2)cc1 | 0.0
Cc1ccc(S(=O)(=O)N2CCN(C(=O)N3CCOCC3)CC2)c(C)c1 | 0.0
O=S(=O)(CCc1nc2ccccc2o1)c1ccc(Cl)cc1 | 0.0
Cc1cc(C)n(C(=O)c2ccc(C)c(S(=O)(=O)N3CCOCC3)c2)n1 | 0.0
O=C(CCS(=O)(=O)c1cccc2nonc12)NCCc1ccccc1Cl | 0.0
NC(=O)C1(C(N)=O)OC1c1ccc(Cl)cc1Cl (stereo unspecified) | 0.0
CCc1nn(CC(=O)N2CCN(c3cc(C)ccc3C)CC2)c(=O)c2cc3occc3n12 | 0.0

**Query** Lab log entry: "CCOc1cc(S(=O)(=O)NCc2ccc3c(c2)OCO3)ccc1F" — outcome as called in the assay?
**Result** 0.0

**Query** Lab log entry: CCc1[nH]nc(C(=O)N2CCCC(CO)(Cc3ccc(F)cc3F)C2)c1C (stereo unspecified) — outcome as called in the assay?
**Result** 0.0

**Query** Lab log entry: "C1=C(N2CCOCC2)/C(=C/c2nc3ccccc3[nH]2)CC1" — outcome as called in the assay?
**Result** 1.0

---

# target_system: Mas-related G-protein coupled receptor member X1 (Homo sapiens)
# assay_remarks: blockade of BAM8-22-evoked MrgX1 calcium response – HEK293 cells, Fluo-4 calcium flux, primary screen (AID 588676)
# protocol_conditions: Fluo-4, BAM8-22 antagonism, at 10 µM
In all, about 310,000 compounds went through this assay and about 3,900 (1.3%) were called active.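 The calls were made as follows: active = calcium-response B-score plate-corrected more than 3 library SD below zero, starting fluorescence within 5 deviations, no agonist response on first addition; inactive = the rest.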 For the sample, actives were picked, then their nearest neighbours and some compounds at random.
Pick one: 1 = active, -1 = inactive

CCOc1ccc(C(=O)NCCCN2CCCC2=O)cc1 | -1
CCOc1ccc(S(=O)(=O)Nc2ccc(C(=O)NCCCN3CCCC3=O)cc2)cc1 | 1
c1ccc(-c2[nH]ncc2-c2nc3ccccc3[nH]2)cc1 | 1
CC(C)N(Cc1ccccc1)C(=O)COC(=O)c1ccccc1SCC(=O)N1CCCC1 | -1

**Query** Lab log entry: "C#CCOCCOCCOCCNc1nc(N2CCN(C(=O)CCCCCCCCCCNC(=O)[C@H]([C@@H](C)CC)n3cc(CCCCN=C(N)N)nn3)CC2)nc(N2CCN(C(=O)CCCCCCCCCCNC(=O)[C@H](CO)n3cc(CCCSC)nn3)CC2)n1" — outcome as called in the assay?
**Result** -1

**Query** Lab log entry: "O=C(NCCCN1CCCC1=O)c1ccc(S(=O)(=O)Nc2ccccc2)cc1" — outcome as called in the assay?
**Result** -1

**Query** Lab log entry: "CCOc1ccc2nc(NC(=O)c3cc([N+](=O)[O-])ccc3N3CCOCC3)sc2c1" — outcome as called in the assay?
**Result** -1

**Query** Lab log entry: "O=C(Nc1cccc(-c2nc3ccccc3[nH]2)c1)c1ccc(C(=O)Nc2cccc(-c3nc4ccccc4[nH]3)c2)cc1" — outcome as called in the assay?
**Result** -1

**Query** Lab log entry: "CCOc1ccc(C(C)=O)cc1COC(=O)CN1C(=O)NC2(CCCC2)C1=O" — outcome as called in the assay?
**Result** -1

**Query** Lab log entry: OC(c1ccccc1)c1nccn1Cc1ccccc1 (stereo not given) — outcome as called in the assay?
**Result** -1

---

# target_system: Mas-related G-protein coupled receptor member X1 (Homo sapiens) (UniProt Q96LB2)
# Sequence (Q96LB2 whole entry, looked up): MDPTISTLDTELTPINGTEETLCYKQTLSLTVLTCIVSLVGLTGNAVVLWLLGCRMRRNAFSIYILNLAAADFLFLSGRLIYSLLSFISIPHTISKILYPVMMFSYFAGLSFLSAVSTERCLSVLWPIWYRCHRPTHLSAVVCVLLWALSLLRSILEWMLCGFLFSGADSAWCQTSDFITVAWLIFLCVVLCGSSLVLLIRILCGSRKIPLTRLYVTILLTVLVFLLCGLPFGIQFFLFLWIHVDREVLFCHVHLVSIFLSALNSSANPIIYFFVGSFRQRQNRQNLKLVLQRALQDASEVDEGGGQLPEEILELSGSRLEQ
# assay_remarks: blockade of BAM8-22-evoked MrgX1 calcium response – HEK293 cells, Fluo-4 calcium flux, primary screen (AID 588676)
# protocol_conditions: Fluo-4, BAM8-22 antagonism, at 10 µM
Screen size: about 310,000 compounds; about 3,900 (1.3%) were called active.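 Rule for the calls: active = calcium-response B-score plate-corrected more than 3 library SD below zero, starting fluorescence within 5 deviations, no agonist response on first addition; inactive = the rest.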 The sample holds actives, similar compounds and a random draw of the others, so the mix is not that of the screen.
Pick one: TRUE (active), FALSE (inactive)

Worked cases, answers included:
CC(=O)Nc1ccc(OC(=O)COc2ccc(Br)cc2)cc1 | TRUE
O=[N+]([O-])c1ccc2c(c1)C(N1CCOCC1)/C(=C/C1(O)CCCCC1)O2 (stereo not drawn) | FALSE
Cc1cc(NC(=O)[C@H](C)NC(=O)c2ccco2)ccc1Br | FALSE
COC(=O)COc1ccc(S(=O)(=O)Nc2ccc(NC(C)=O)cc2)cc1 | FALSE
CCSc1nsc(NC(=O)Nc2ccccc2OC)n1 | FALSE
O=C(Nc1ccc(Cl)cc1)Nc1ccc(Oc2cccnc2)nc1 | TRUE
CCOC(=O)c1nn(-c2cccc(C)c2)cc1C(=O)c1ccccc1 | FALSE
CCOc1ccc(NC(=O)Nc2ccc(N(C)C(C)=O)cc2)cc1 | FALSE

**Query** Lab log entry: "CC(=O)c1cc(-c2ccccc2)n(CCC(=O)NC2CCCCCC2)c1C" — outcome as called in the assay?
**Result** FALSE

**Query** Lab log entry: "Cc1ccc(NC(=O)Nc2cccnc2)cc1" — outcome as called in the assay?
**Result** FALSE

**Query** Lab log entry: "CCOC(=O)c1nnn2c1nc(N1CCN(c3ccccc3)CC1)c1ccccc12" — outcome as called in the assay?
**Result** FALSE

**Query** Lab log entry: "CC(=O)N(C)c1ccc(NC(=O)Nc2cccc3ccccc23)cc1" — outcome as called in the assay?
**Result** FALSE

**Query** Lab log entry: O=C(NC1CCCC1)C(c1ccccn1)N(C(=O)c1csnn1)C1CCCC1 (stereo not drawn) — outcome as called in the assay?
**Result** FALSE

---

# target_system: Mas-related G-protein coupled receptor member X1 (Homo sapiens)
# assay_remarks: blockade of BAM8-22-evoked MrgX1 calcium response – HEK293 cells, Fluo-4 calcium flux, primary screen (AID 588676)
# protocol_conditions: Fluo-4, BAM8-22 antagonism, at 10 µM
Among all 310,000 compounds or so, about 3,900 (1.3%) were called active.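 How the source made its calls: active means calcium-response B-score plate-corrected more than 3 library SD below zero, starting fluorescence within 5 deviations, no agonist response on first addition; inactive means the rest.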 The entries come from a sample that favours actives as a whole.
Pick one: active, inactive

O=C1c2cccc3cccc(c23)C(=O)N1c1cccc(O)c1 | inactive

**Query** Lab log entry: "S=C(NCc1ccc(Cl)cc1)NC1CCCCC1" — outcome as called in the assay?
**Result** inactive

**Query** Lab log entry: "O=C(COc1ccc(Cl)cc1)NC(=S)Nc1ccccc1N1CCOCC1" — outcome as called in the assay?
**Result** active

**Query** Lab log entry: "COc1cccc(N(Cc2nnc3n2CCCCC3)C(=O)Nc2ccccc2F)c1" — outcome as called in the assay?
**Result** inactive

**Query** Lab log entry: "CCOC(=O)c1c(NC(=O)CCl)sc(C(=O)N(CC)CC)c1C" — outcome as called in the assay?
**Result** inactive

**Query** Lab log entry: "CCc1ccc(C(=O)NC(=S)Nc2ccccc2N2CCOCC2)cc1" — outcome as called in the assay?
**Result** inactive

**Query** Lab log entry: "CCOC(=O)N1CCN(C(=O)COc2ccc(Br)cc2)CC1" — outcome as called in the assay?
**Result** inactive

**Query** Lab log entry: "O=C(NCc1ccncc1)NC12CC3CC(CC(C3)C1)C2" — outcome as called in the assay?
**Result** inactive

**Query** Lab log entry: "Cc1cccc(CSc2ccc(-c3cccs3)nn2)c1" — outcome as called in the assay?
**Result** inactive

**Query** Lab log entry: "COc1cc(C(=S)N2CCOCC2)cc(OC)c1OC(=O)c1cc([N+](=O)[O-])c(C)c([N+](=O)[O-])c1" — outcome as called in the assay?
**Result** inactive

**Query** Lab log entry: CCOCCCN1C(=O)C2C(C(=O)Nc3ccc(OCC)cc3)C3C=CC2(O3)C1C(=O)NC1CCCCC1 (stereo unspecified) — outcome as called in the assay?
**Result** inactive
